- Test system: human erythroid cells
- test_details: DNA fragmentation by flow cytometry (propidium iodide)
- Assay type: cell-based
- condition_description: 1.0 mM to 2.0 mM; untreated cells 26%
parameter: Degraded DNA

1) O=C(O)COc1ccccc1 [PAA, Phenoxyacetic acid]	20.6%
2) CC(C)C(N)=O [IBT, isobutyramide]	44%
3) CCCC(=O)OCC [BAEE, butyric acid ethyl ester]	13.8%

Next molecule, Degraded DNA to be filled in.
Sample CCCC(=O)O [AB, arginine butyrate] — what was its Degraded DNA?
44%

----------
- System: human erythroid cells
- test_details: DNA fragmentation by flow cytometry (propidium iodide)
- Type: cell-based
- condition_description: summary statement
parameter: effect in DNA fragmentation assays

1. CC(C)C(N)=O [IBT, isobutyramide]	decrease cell viability
2. CCCC(=O)OCC [BAEE, butyric acid ethyl ester]	reduce DNA fragmentation
3. O=C(O)COc1ccccc1 [PAA, Phenoxyacetic acid]	reduce DNA fragmentation
4. CCCC(=O)O [AB, arginine butyrate]	decrease cell viability

----------
List of Degraded DNA values.
- Tested on: human erythroid cells
- test_details: DNA fragmentation by flow cytometry (propidium iodide)
- Type: cell-based
- condition_description: 2.0 mM; 4 days; controls 26%, 22%
The answer is to be given in %; state only the numeric part.

1. CCCC(=O)OCC	13.8
2. CC(C)C(N)=O [IBT, isobutyramide]	34
3. CCCC(=O)O [AB, arginine butyrate]	44

Next compound, Degraded DNA to be filled in.
Sample O=C(O)COc1ccccc1 — what was its Degraded DNA?
20.6
